Target: CMD1 (UniProt A0A2K3D5Z7 1-532)
Sequence (A0A2K3D5Z7 whole entry): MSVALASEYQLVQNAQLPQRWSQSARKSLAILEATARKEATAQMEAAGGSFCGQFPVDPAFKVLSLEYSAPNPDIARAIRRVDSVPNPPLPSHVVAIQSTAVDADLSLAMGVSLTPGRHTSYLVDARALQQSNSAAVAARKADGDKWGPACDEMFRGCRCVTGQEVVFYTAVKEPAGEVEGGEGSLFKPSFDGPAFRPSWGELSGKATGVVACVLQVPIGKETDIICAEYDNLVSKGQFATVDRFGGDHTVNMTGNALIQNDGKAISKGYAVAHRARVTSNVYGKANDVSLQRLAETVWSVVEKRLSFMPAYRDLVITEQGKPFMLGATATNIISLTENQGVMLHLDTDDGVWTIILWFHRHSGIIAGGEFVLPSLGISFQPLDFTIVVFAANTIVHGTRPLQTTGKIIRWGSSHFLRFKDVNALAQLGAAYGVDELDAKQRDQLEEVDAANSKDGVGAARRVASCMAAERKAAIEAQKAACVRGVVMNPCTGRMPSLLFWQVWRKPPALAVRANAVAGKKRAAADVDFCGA
Assay: BLI; range over dsDNA7-9; BLI: 20 mM Tris-HCl pH 8.0, 50 mM NaCl, 0.1% Tween-20, 0.5% BSA, 25 C; biotin-DNA on streptavidin sensors, 1:1 fit
Details: protein: recombinant; tags: His6-SUMO, cleaved with ULP1; label: 5'-biotin
pKd: −log10 of the molar value.
Observed Property: pKd

Binder	Val
dsDNA9 (10-30 bp) (dsDNA) DNA 1: AACTTACATAAATGCCAATATAGTATGCGT DNA 2: ACGCATACTATATTGGCATTTATGTAAGTT	~5.71

Let's switch to this binder now.
(Q) Please supply the value of reported pKd for the item dsDNA8 (10-30 bp) (dsDNA) DNA 1: ACTTACTGCCAATATAGTAT DNA 2: ATACTATATTGGCAGTAAGT
(A) ~5.71
